# Test system: HCV replicon cell line AVA5 (sub-genomic (CON1), genotype 1b)
# ASSAY PROCEDURE: microbe, parasite or virus in culture
# CONDITION DESCRIPTION: Hepatitis C virus, GETYPE1B, Ava5, read-out: EC50 (μM) (individual agent)

| COMPOUND | EC50 |
| --- | --- |
| NC(=O)c1ncn([C@@H]2O[C@H](CO)[C@@H](O)[C@H]2O)n1 [Ribavirin] | > 30 µM |
